Biological target: Cytochrome P450 2D6 (Homo sapiens) (UniProt P10635)
Sequence (P10635 whole entry, looked up): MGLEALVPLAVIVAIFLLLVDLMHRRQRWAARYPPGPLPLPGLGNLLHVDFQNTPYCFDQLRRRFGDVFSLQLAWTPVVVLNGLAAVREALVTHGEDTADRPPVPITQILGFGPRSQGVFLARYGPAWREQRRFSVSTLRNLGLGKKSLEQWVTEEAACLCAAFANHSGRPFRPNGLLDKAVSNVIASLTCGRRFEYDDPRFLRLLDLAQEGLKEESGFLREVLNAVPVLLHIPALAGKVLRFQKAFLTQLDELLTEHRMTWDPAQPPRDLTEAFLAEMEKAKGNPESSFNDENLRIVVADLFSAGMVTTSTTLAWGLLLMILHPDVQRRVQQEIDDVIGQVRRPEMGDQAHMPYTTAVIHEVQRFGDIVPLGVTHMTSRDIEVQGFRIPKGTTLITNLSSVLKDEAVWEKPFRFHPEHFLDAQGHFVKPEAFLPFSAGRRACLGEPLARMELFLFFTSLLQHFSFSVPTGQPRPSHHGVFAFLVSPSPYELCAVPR
Assay: qHTS for inhibitors of CYP2D6 against the NCATS DSHEA and TCM libraries (AID 1919972)
Details: CYP2D6 enzymatic inhibition, luminescence qHTS; series mostly up to 34.1 µM
From the text: Assay Development and Screening Technology Laboratory (ADST) National Center for Advancing Translational Sciences (NCATS), Rockville, MD National Institute of Health (NIH), Bethesda, Maryland Dietary Supplements and Natural Products have minor oversight of their safety and efficacy. […] Overall, we highlight four significant bioactivity profiles (measured by p-values) as examples of this prediction. […] 9; Read; Luminescence; ViewLux plate reader. […]
Inconclusive results are not listed. Activity calls are given as the source filed them. Calls come from the whole dose curve; as a rule, active = well fitted inhibition curve with a large enough effect; inconclusive = small, poorly fitted or top-dose-only effect; inactive = no such curve, though single readings can be large or run the other way.
Outcomes: active, inactive

>  <compound>
O=c1cc(-c2ccc(O)c(O)c2)oc2cc(O[C@@H]3O[C@@H](CO)[C@@H](O)[C@@H](O)[C@H]3O)cc(O)c12

>  <system tested>
Cytochrome P450 2D6 (Homo sapiens) (UniProt P10635)

>  <qualitative label>
inactive

$$$$
>  <compound>
CCCCCC/C=C/CCCCCCCCCC(=O)O

>  <system tested>
Cytochrome P450 2D6 (Homo sapiens) (UniProt P10635)

>  <qualitative label>
inactive

$$$$
>  <compound>
CC(C)(O)[C@@H]1CC[C@](C)([C@@H]2[C@H](O)C[C@]3(C)C4C[C@@H](O[C@H]5O[C@@H](CO)[C@H](O)[C@@H](O)[C@@H]5O)C5C(C)(C)[C@H](O[C@H]6OC[C@H](O)[C@@H](O)[C@@H]6O)CC[C@]56CC46CC[C@@]23C)O1 (some centres undefined)

>  <system tested>
Cytochrome P450 2D6 (Homo sapiens) (UniProt P10635)

>  <qualitative label>
inactive

$$$$
>  <compound>
CC(=O)OC1CC2CCC1(C)C2(C)C (centres undefined)

>  <system tested>
Cytochrome P450 2D6 (Homo sapiens) (UniProt P10635)

>  <qualitative label>
inactive

$$$$
>  <compound>
CCCCCC/C=C\CCCCCCCC(=O)O

>  <system tested>
Cytochrome P450 2D6 (Homo sapiens) (UniProt P10635)

>  <qualitative label>
inactive

$$$$
>  <compound>
O=C(/C=C/c1ccc(O)c(O)c1)O[C@@H]1CC(C(=O)O)=C[C@@H](O)[C@H]1O

>  <system tested>
Cytochrome P450 2D6 (Homo sapiens) (UniProt P10635)

>  <qualitative label>
inactive

$$$$
>  <compound>
C=CC(=C)CCC=C(C)C

>  <system tested>
Cytochrome P450 2D6 (Homo sapiens) (UniProt P10635)

>  <qualitative label>
inactive

$$$$
>  <compound>
CC(C)=CCCC(C)(OC1OC(COC2OC(CO)C(O)C2O)C(O)C(O)C1O)C1CCC2(C)C1C(O)CC1C3(C)CCC(OC4OC(CO)C(O)C(O)C4OC4OC(CO)C(O)C(O)C4O)C(C)(C)C3CCC12C (centres undefined)

>  <system tested>
Cytochrome P450 2D6 (Homo sapiens) (UniProt P10635)

>  <qualitative label>
inactive

$$$$
>  <compound>
C=C/C(C)=C/C/C=C(\C)CCC=C(C)C

>  <system tested>
Cytochrome P450 2D6 (Homo sapiens) (UniProt P10635)

>  <qualitative label>
inactive

$$$$
>  <compound>
C=C(C)C(CC=C(C)C)CC12CC(CC=C(C)C)C(C)(C)C(CC=C(C)C)(C(=O)/C(=C(\O)c3ccc(O)c(O)c3)C1=O)C2=O (centres undefined)

>  <system tested>
Cytochrome P450 2D6 (Homo sapiens) (UniProt P10635)

>  <qualitative label>
active

$$$$
>  <compound>
CCCCCCCCCCCCCCCCCCCCCC(=O)O

>  <system tested>
Cytochrome P450 2D6 (Homo sapiens) (UniProt P10635)

>  <qualitative label>
inactive

$$$$
>  <compound>
CC1=CCC(=C(C)C)CC1

>  <system tested>
Cytochrome P450 2D6 (Homo sapiens) (UniProt P10635)

>  <qualitative label>
inactive

$$$$
>  <compound>
CC(=O)OC/C=C/c1ccccc1

>  <system tested>
Cytochrome P450 2D6 (Homo sapiens) (UniProt P10635)

>  <qualitative label>
inactive

$$$$
>  <compound>
C=C1C[C@@]23CC[C@H]4[C@](C)(CCC[C@]4(C)C(=O)O[C@@H]4O[C@H](CO)[C@@H](O)[C@H](O)[C@H]4O)[C@@H]2CC[C@]1(O[C@H]1O[C@@H](CO)[C@H](O)[C@@H](O)[C@@H]1O)C3

>  <system tested>
Cytochrome P450 2D6 (Homo sapiens) (UniProt P10635)

>  <qualitative label>
inactive

$$$$
>  <compound>
CC[C@H](CC[C@@H](C)[C@H]1CCC2C3CCC4C[C@@H](O)CC[C@]4(C)C3CC[C@@]21C)C(C)C (some centres undefined)

>  <system tested>
Cytochrome P450 2D6 (Homo sapiens) (UniProt P10635)

>  <qualitative label>
inactive

$$$$
>  <compound>
COc1ccc(/C=C/c2cc(OC)cc(=O)o2)cc1

>  <system tested>
Cytochrome P450 2D6 (Homo sapiens) (UniProt P10635)

>  <qualitative label>
inactive

$$$$
>  <compound>
CC(C)=CCCC(C)=CCCC(C)=CCCC=C(C)CCC=C(C)CCC=C(C)C

>  <system tested>
Cytochrome P450 2D6 (Homo sapiens) (UniProt P10635)

>  <qualitative label>
inactive

$$$$
>  <compound>
CCCCCCCC/C=C\CCCCCCCCCCCCCC(=O)O

>  <system tested>
Cytochrome P450 2D6 (Homo sapiens) (UniProt P10635)

>  <qualitative label>
inactive

$$$$
>  <compound>
Cc1ncc(COP(=O)(O)O)c(C)c1O

>  <system tested>
Cytochrome P450 2D6 (Homo sapiens) (UniProt P10635)

>  <qualitative label>
inactive

$$$$
>  <compound>
CCCCCC(=O)O

>  <system tested>
Cytochrome P450 2D6 (Homo sapiens) (UniProt P10635)

>  <qualitative label>
inactive

$$$$
>  <compound>
C=C1C[C@@]23CC[C@H]4[C@@](C)(CCC[C@@]4(C)C(=O)O[C@@H]4O[C@H](CO)[C@@H](O)[C@H](O)[C@H]4O)[C@@H]2CC[C@]1(O[C@@H]1O[C@H](CO)[C@@H](O)[C@H](O[C@@H]2O[C@H](CO)[C@@H](O)[C@H](O)[C@H]2O)[C@H]1O[C@@H]1O[C@@H](C)[C@H](O)[C@@H](O)[C@H]1O)C3

>  <system tested>
Cytochrome P450 2D6 (Homo sapiens) (UniProt P10635)

>  <qualitative label>
inactive

$$$$
>  <compound>
CCCCCCCCCCCC(=O)O

>  <system tested>
Cytochrome P450 2D6 (Homo sapiens) (UniProt P10635)

>  <qualitative label>
inactive

$$$$
>  <compound>
CC(C)(O)[C@@H]1CC[C@](C)([C@H]2[C@@H](O)C[C@@]3(C)[C@@H]4C[C@H](O)[C@H]5C(C)(C)[C@@H](O[C@@H]6OC[C@@H](O)[C@H](O)[C@H]6O[C@@H]6O[C@H](CO)[C@@H](O)[C@H](O)[C@H]6O)CC[C@@]56C[C@@]46CC[C@]23C)O1

>  <system tested>
Cytochrome P450 2D6 (Homo sapiens) (UniProt P10635)

>  <qualitative label>
inactive

$$$$
>  <compound>
CCCCCCCC/C=C/CCCCCCCCCC(=O)O

>  <system tested>
Cytochrome P450 2D6 (Homo sapiens) (UniProt P10635)

>  <qualitative label>
inactive

$$$$
>  <compound>
Cc1ccc(O)c(O)c1

>  <system tested>
Cytochrome P450 2D6 (Homo sapiens) (UniProt P10635)

>  <qualitative label>
inactive

$$$$
>  <compound>
OCCc1ccc(O)cc1

>  <system tested>
Cytochrome P450 2D6 (Homo sapiens) (UniProt P10635)

>  <qualitative label>
inactive

$$$$
>  <compound>
CC1=C2[C@H](/C=C(\C)C(=O)O)CC[C@@H](C)[C@H]2CC1

>  <system tested>
Cytochrome P450 2D6 (Homo sapiens) (UniProt P10635)

>  <qualitative label>
inactive

$$$$
>  <compound>
C=C1C[C@]23CC[C@H]4[C@@](C)(CCC[C@@]4(C)C(=O)O)[C@@H]2CC[C@@]1(O[C@@H]1O[C@H](CO)[C@@H](O)[C@H](O)[C@H]1O[C@@H]1O[C@H](CO)[C@@H](O)[C@H](O)[C@H]1O)C3

>  <system tested>
Cytochrome P450 2D6 (Homo sapiens) (UniProt P10635)

>  <qualitative label>
inactive

$$$$
>  <compound>
CC(=O)O[C@H]1[C@H](O[C@H]2CC[C@]34C[C@]35CC[C@]3(C)[C@@H]([C@@]6(C)CC[C@@H](C(C)(C)O)O6)[C@@H](O)C[C@@]3(C)[C@@H]5C[C@H](O[C@@H]3O[C@H](CO)[C@@H](O)[C@H](O)[C@H]3O)[C@H]4C2(C)C)OC[C@@H](O)[C@@H]1O

>  <system tested>
Cytochrome P450 2D6 (Homo sapiens) (UniProt P10635)

>  <qualitative label>
inactive

$$$$
>  <compound>
CC(C)c1ccc(C=O)cc1

>  <system tested>
Cytochrome P450 2D6 (Homo sapiens) (UniProt P10635)

>  <qualitative label>
inactive

$$$$
>  <compound>
O=C(O)c1ccccc1

>  <system tested>
Cytochrome P450 2D6 (Homo sapiens) (UniProt P10635)

>  <qualitative label>
inactive

$$$$
>  <compound>
CC(=O)O[C@@H]1CC[C@@]2(C)[C@@H](CC[C@]3(C)[C@@H]2C(=O)C=C2[C@@H]4[C@@H](C)[C@H](C)CC[C@]4(C)CC[C@]23C)[C@@]1(C)C(=O)O

>  <system tested>
Cytochrome P450 2D6 (Homo sapiens) (UniProt P10635)

>  <qualitative label>
inactive

$$$$
>  <compound>
CC1(C)CC[C@]2(C(=O)O)CC[C@]3(C)C(=CCC4[C@@]5(C)CC[C@H](O)[C@@](C)(CO)C5CC[C@]43C)[C@H]2C1 (some centres undefined)

>  <system tested>
Cytochrome P450 2D6 (Homo sapiens) (UniProt P10635)

>  <qualitative label>
inactive

$$$$
>  <compound>
COc1cc(-c2oc3cc(O)cc(O)c3c(=O)c2O)ccc1O

>  <system tested>
Cytochrome P450 2D6 (Homo sapiens) (UniProt P10635)

>  <qualitative label>
active

$$$$
